Listed here are binders together with their documented EC50, aequorin bioluminescence.
target: human MCH-1R (human, UniProt Q99705 1-353); experiment: cell-based or functional assay
Sequence (Q99705 whole entry): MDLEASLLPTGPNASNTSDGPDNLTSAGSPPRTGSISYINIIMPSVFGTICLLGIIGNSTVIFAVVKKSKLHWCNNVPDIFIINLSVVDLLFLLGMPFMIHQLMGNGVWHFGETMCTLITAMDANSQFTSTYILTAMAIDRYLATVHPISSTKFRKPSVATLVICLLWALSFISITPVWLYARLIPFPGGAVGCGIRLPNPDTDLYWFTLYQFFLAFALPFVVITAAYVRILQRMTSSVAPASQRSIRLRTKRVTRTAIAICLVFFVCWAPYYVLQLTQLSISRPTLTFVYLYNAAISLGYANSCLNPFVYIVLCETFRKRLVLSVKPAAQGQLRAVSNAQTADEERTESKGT
Positions of bridges follow the written chain, without caps; N, C: chain ends.

| BINDER | EC50, aequorin bioluminescence |
| --- | --- |
| Ac-RCMLGRVYRPC-NH2 (disulfide 2-11 (inferred), also called ID; NO; parent compound) [Ac-hMCH(6-16)-NH2] | 20 nM |
| XCXLNRVYRPC (HELM PEPTIDE1{[ac].[dR].C.[Nle].L.N.R.V.Y.R.P.C.[am]}$PEPTIDE1,PEPTIDE1,3:R3-12:R3$$$V2.0; SMILES CCCC[C@@H]1NC(=O)[C@@H](NC(=O)[C@@H](CCCNC(=N)N)NC(C)=O)CSSC[C@@H](C(N)=O)NC(=O)[C@@H]2CCCN2C(=O)[C@H](CCCNC(=N)N)NC(=O)[C@H](Cc2ccc(O)cc2)NC(=O)[C@H](C(C)C)NC(=O)[C@H](CCCNC(=N)N)NC(=O)[C@H](CC(N)=O)NC(=O)[C@H](CC(C)C)NC1=O) [SEQ. ID. NO. 31 (D-Arg^6, Nle^8, Asn^10 analog of Ac-hMCH(6-16)-NH2)] | 240 nM |
| XCMLNRVYRPC (HELM PEPTIDE1{[ac].[dR].C.M.L.N.R.V.Y.R.P.C.[am]}$PEPTIDE1,PEPTIDE1,3:R3-12:R3$$$V2.0; SMILES CSCC[C@@H]1NC(=O)[C@@H](NC(=O)[C@@H](CCCNC(=N)N)NC(C)=O)CSSC[C@@H](C(N)=O)NC(=O)[C@@H]2CCCN2C(=O)[C@H](CCCNC(=N)N)NC(=O)[C@H](Cc2ccc(O)cc2)NC(=O)[C@H](C(C)C)NC(=O)[C@H](CCCNC(=N)N)NC(=O)[C@H](CC(N)=O)NC(=O)[C@H](CC(C)C)NC1=O) [SEQ. ID. NO. 29 (D-Arg^6, Asn^10 analog of Ac-hMCH(6-16)-NH2)] | 55 nM |
